Source: patent US4468399A

Please respond with reported Kd for every item in the list.
Target: H2 receptor (Rattus norvegicus)
Construct: uterine horns removed therefrom and suspended at ambient temperature in isolated organ baths; from tissue; host or cells: isolated uterine horn strips of estrone-treated female albino rats
Sequence (P25102 whole entry): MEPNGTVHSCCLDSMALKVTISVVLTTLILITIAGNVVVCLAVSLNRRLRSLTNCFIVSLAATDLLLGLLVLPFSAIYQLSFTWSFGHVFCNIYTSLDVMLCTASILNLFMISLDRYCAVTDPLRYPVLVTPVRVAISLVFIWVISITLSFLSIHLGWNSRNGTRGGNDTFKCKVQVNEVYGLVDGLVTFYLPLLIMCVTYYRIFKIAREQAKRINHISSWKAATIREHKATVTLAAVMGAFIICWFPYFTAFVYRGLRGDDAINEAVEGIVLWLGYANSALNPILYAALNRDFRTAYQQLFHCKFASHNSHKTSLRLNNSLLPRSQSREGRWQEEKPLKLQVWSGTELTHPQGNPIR
Test: H2 receptor blocking activity, histamine-induced relaxation of isolated rat uterine strips
Type: cell-based, rat (female albino rats)
Conditions: antagonist 10^-5 molar, 30 minutes, dissociation constant from dose ratio of histamine ED50; read-out: -logKb (converted)
One number for each entry, in nM.

Below is a list of compounds. For each, state its recorded Kd.
1. COc1ccc(Cc2cnc(NCCSCc3csc(CN(C)C)n3)[nH]c2=O)cn1
2. CN(C)Cc1nc(CSCCNc2nc(=O)c(Cc3ccc4c(c3)OCO4)c[nH]2)cs1

[60.3, 4.37]
